Biological target: Adrenergic receptor alpha-1 (Rattus norvegicus, UniProt P15823+P23944+P43140)
Assay: Displacement of [3H]-prazosin from alpha1-adrenergic receptor in rat cerebral cortex by liquid scintillation counting
Assay type: tissue-based
# note: boundary value 0.08 µM maps to false; Ki below it maps to true

COc1ccccc1N1CCN(CCCOc2cccc3c(=O)c4ccccc4oc23)CC1.Cl
true
Cl.Cl.Cl.O=c1c2ccc(Cl)cc2oc2c(OCC(O)CN3CCN(C/C=C/c4ccccc4)CC3)cccc12 (racemic)
false
Cl.Cl.Cl.O=c1c2ccc(Cl)cc2oc2c(OCC(O)CN3CCN(Cc4ccccc4)CC3)cccc12 (racemic)
false

Ki under 0.08 µM? Item: `COc1ccc(N2CCN(CCCOc3cccc4c(=O)c5ccccc5oc34)CC2)cc1.Cl` false

Now the molecule Cl.Cl.O=c1c2ccccc2oc2c(OCC(O)CN3CCN(C/C=C/c4ccccc4)CC3)cccc12 (racemic) false

Follow-up entry: Cl.Cl.Cl.O=c1c2ccc(Cl)cc2oc2c(OCC(O)CN3CCN(CCOc4ccccc4)CC3)cccc12 (racemic) false

Do the same for COc1ccccc1N1CCN(CC(O)COc2cccc3c(=O)c4ccccc4oc23)CC1.Cl (racemic) please true

And the next one, COc1ccccc1N1CCN(CC(COc2cccc3c(=O)c4ccccc4oc23)OC(C)=O)CC1.Cl (racemic) ? true

----------
Target: Adrenergic receptor alpha-2 (Rattus norvegicus, UniProt P22086+P19328+P22909)
Experiment: Displacement of [3H]clonidine from alpha2-adrenergic receptor in rat cerebral cortex by liquid scintillation counting
Format: tissue-based
Quantity Name: Ki (µM)
Numbers only; they are read as µM.

# example entries with known answers
COc1ccccc1N1CCN(CCCOc2cccc3c(=O)c4ccccc4oc23)CC1.Cl
0.695
COc1ccccc1N1CCN(CC(COc2cccc3c(=O)c4ccccc4oc23)OC(C)=O)CC1.Cl (racemic)
2.1
Cl.Cl.Cl.O=c1c2ccc(Cl)cc2oc2c(OCC(O)CN3CCN(CCOc4ccccc4)CC3)cccc12 (racemic)
0.45
COc1ccccc1N1CCN(CCCOc2cccc3c(=O)c4ccc(Cl)cc4oc23)CC1.Cl
5.5
Cl.Cl.Cl.O=c1c2ccc(Cl)cc2oc2c(OCC(O)CN3CCN(C/C=C/c4ccccc4)CC3)cccc12 (racemic)
3.4
Cl.Cl.O=c1c2ccccc2oc2c(OCC(O)CN3CCN(C/C=C/c4ccccc4)CC3)cccc12 (racemic)
0.634
COc1ccccc1N1CCN(CC(O)COc2cccc3c(=O)c4ccccc4oc23)CC1.Cl (racemic)
4.26

Given the compound Cl.Cl.Cl.O=c1c2ccc(Cl)cc2oc2c(OCC(O)CN3CCN(Cc4ccccc4)CC3)cccc12 (racemic) , what is its reported Ki? 7.7
